Data origin, for the record: patent US20230339854A1

assay: In vivo pharmacokinetics and brain penetration in mice; set-up: species or system mouse; conditions: male, C57BL/6, mouse, brain, ip, 20 mg/kg, mice; 20 mg/kg intraperitoneal; 0.25 hour; read-out: Brain Concentration
MEASURED ENDPOINT: concentration at 0.25 h
Units required after the number.

Bench note: what concentration at 0.25 h did COc1ccc(OCC(c2ccc(OC)cc2)N2Cc3ccccc3C2=O)cc1 (racemic) show? 3.68 µM

---

biological target: human GluN1^FA,TL/GluN3A receptors (Homo sapiens, UniProt Q8TCU5); construct: Human GluN3A (NP_597702.2) and rat GluN3B (NP_579842.2) were synthesized and subcloned into SP6 plasmids; expressed in transfected cells; host or cells: Xenopus laevis oocytes, cRNA injection (GluN1:GluN3 1:3); experiment: Two-electrode voltage-clamp recordings of GluN1^FA,TL/GluN3A receptors in Xenopus oocytes; format: cell-based; conditions: read-out: hGluN1^FA,TL/hGluN3A (100 × Idrug/Icontrol at 30 μM drug)
Sequence (Q8TCU5 24-1115, other chains not shown): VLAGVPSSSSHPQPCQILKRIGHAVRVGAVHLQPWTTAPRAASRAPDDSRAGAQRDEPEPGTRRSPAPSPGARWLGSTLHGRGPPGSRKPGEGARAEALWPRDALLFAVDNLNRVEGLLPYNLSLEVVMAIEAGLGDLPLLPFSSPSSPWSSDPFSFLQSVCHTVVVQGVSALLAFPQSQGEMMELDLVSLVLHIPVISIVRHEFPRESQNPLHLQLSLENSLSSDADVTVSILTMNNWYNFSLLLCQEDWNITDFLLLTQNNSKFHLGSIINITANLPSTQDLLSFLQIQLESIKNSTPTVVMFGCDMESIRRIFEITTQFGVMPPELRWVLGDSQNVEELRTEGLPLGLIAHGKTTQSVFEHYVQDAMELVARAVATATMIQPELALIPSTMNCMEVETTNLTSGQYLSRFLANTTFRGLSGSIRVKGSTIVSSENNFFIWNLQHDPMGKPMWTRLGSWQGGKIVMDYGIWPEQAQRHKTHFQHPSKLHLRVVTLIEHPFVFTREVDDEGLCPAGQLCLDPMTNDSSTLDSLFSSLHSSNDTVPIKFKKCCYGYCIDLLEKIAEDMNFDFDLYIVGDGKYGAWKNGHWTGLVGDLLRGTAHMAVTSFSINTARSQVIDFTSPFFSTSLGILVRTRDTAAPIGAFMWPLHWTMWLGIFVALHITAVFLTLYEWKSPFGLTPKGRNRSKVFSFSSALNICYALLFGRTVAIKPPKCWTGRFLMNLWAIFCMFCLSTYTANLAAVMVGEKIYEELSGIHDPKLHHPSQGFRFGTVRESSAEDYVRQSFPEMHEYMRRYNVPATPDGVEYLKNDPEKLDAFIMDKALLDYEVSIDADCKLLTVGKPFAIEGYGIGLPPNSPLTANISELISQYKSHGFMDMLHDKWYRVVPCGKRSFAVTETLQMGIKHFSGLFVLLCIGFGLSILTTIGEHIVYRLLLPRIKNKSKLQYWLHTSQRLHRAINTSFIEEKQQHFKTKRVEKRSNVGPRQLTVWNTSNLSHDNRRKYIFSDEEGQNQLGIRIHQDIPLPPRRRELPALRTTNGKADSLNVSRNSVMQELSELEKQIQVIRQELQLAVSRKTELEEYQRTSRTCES
Could you mark each record met if its remaining activity at 30 µM falls strictly under 90%, and not met if it equals or exceeds it?

Example results:
| COMPOUND | ANSWER LABEL |
| --- | --- |
| COc1ccc(OCC(c2ccc(OC(C)C)cc2)N2Cc3ccc(Cl)cc3C2=O)cc1 (centres unmarked) | not met |
| COc1ccc(OCC(c2ccc(OC)cc2)N2Cc3cc(F)ccc3C2=O)cc1 (centres unmarked) | met |
| COc1ccc(C(COc2cccc(C)n2)N2Cc3cc(F)ccc3C2=O)c(F)c1 (centres unmarked) | met |
| COc1ccc(C(COc2cccc(C)n2)N2Cc3ccc(Cl)cc3C2=O)c(F)c1 (centres unmarked) | met |
| COc1cc(F)c(C(COc2cccc(C)n2)N2Cc3cc(Cl)ccc3C2=O)c(F)c1 (centres unmarked) | met |

Say whether its remaining activity at 30 µM is strictly beneath 90%. Entry: CC(C)Oc1ccc(C(COc2ccc(OC(F)(F)F)cc2)N2Cc3ccccc3C2=O)cc1 (centres unmarked) not met

Say whether its remaining activity at 30 µM is strictly beneath 90%. Entry: COc1ccc(OCC(c2ccc(OC)cc2F)N2Cc3ccccc3C2=O)cc1 (centres unmarked) met

---

experiment: In vivo pharmacokinetics and brain penetration in mice; parameters: species or system mouse; settings: male, C57BL/6, mouse, brain, ip, 20 mg/kg, mice; 20 mg/kg intraperitoneal; 0.25 hour; read-out: Brain to Plasma Ratio
MEASURED ENDPOINT: Kp at 0.25 h
Number only, please.

Bench note: what Kp at 0.25 h did COc1ccc(OCC(c2ccc(OC)cc2)N2Cc3ccccc3C2=O)cc1 (racemic) show? 1.6

---

molecular target: human GluN1^FA,TL/GluN3A receptors (Homo sapiens, UniProt Q8TCU5); construct: Human GluN3A (NP_597702.2) and rat GluN3B (NP_579842.2) were synthesized and subcloned into SP6 plasmids; expressed in transfected cells; host or cells: Xenopus laevis oocytes, cRNA injection (GluN1:GluN3 1:3); assay: Two-electrode voltage-clamp recordings of GluN1^FA,TL/GluN3A receptors in Xenopus oocytes; type: cell-based; settings: read-out: hGluN1^FA,TL/hGluN3A (100 × Idrug/Icontrol at 30 μM drug)
Could you mark each record true (1) if its remaining activity at 30 µM falls strictly under 80%, and false (0) if it equals or exceeds it?

Example results:
| MOLECULE | TARGET OR TEST SYSTEM | ANSWER LABEL |
| --- | --- | --- |
| Cc1cccc(OCC(c2ccc(OC(C)C)cc2)N2Cc3ccc(C(F)(F)F)cc3C2=O)n1 (centres unmarked) [EU1180-511] | human GluN1^FA,TL/GluN3A receptors (Homo sapiens, UniProt Q8TCU5) | false (0) |
| CC(C)Oc1ccc(C(COc2ccc(C(F)(F)F)cc2)N2Cc3cc(F)ccc3C2=O)cc1 (centres unmarked) [EU1180-576] | human GluN1^FA,TL/GluN3A receptors (Homo sapiens, UniProt Q8TCU5) | false (0) |
| COc1ccc(OCC(c2c(F)cc(OC)cc2F)N2Cc3ccc(Cl)cc3C2=O)cc1 (centres unmarked) [EU1180-548] | human GluN1^FA,TL/GluN3A receptors (Homo sapiens, UniProt Q8TCU5) | false (0) |
| CCOc1ccc(OCC(c2ccc(OC(C)C)cc2)N2Cc3ccc(Cl)cc3C2=O)cc1 (centres unmarked) [EU1180-588] | human GluN1^FA,TL/GluN3A receptors (Homo sapiens, UniProt Q8TCU5) | true (1) |
| COc1ccc(OCC(c2c(F)cc(OC)cc2F)N2Cc3ccc(F)cc3C2=O)cc1 (centres unmarked) [EU1180-552] | human GluN1^FA,TL/GluN3A receptors (Homo sapiens, UniProt Q8TCU5) | true (1) |
| CCOc1ccc(OCC(c2ccc(OC(C)C)cc2)N2Cc3cc(F)ccc3C2=O)cc1 (centres unmarked) [EU1180-591] | human GluN1^FA,TL/GluN3A receptors (Homo sapiens, UniProt Q8TCU5) | false (0) |
| Cc1cccc(OCC(c2ccc(OC(C)C)cc2)N2Cc3cc(Br)ccc3C2=O)n1 (centres unmarked) [EU1180-515] | human GluN1^FA,TL/GluN3A receptors (Homo sapiens, UniProt Q8TCU5) | false (0) |
| COc1ccc(OCC(c2ccc(OC)cc2)N2Cc3ccc(F)cc3C2=O)cc1 (centres unmarked) [EU1180-522] | human GluN1^FA,TL/GluN3A receptors (Homo sapiens, UniProt Q8TCU5) | true (1) |

Say whether its remaining activity at 30 µM is strictly beneath 80%. Entry: COc1ccc(C(COc2cccc(C)n2)N2Cc3ccc(Cl)cc3C2=O)cc1 (centres unmarked) [EU1180-595] true (1)
